# ASSAY TARGET: SARS-CoV-2 Main Protease (SARS-CoV-2) (UniProt P0DTD1)
# SETUP CONDITIONS: 20.0 µM
ASSAY READOUT: inhibition (%)

C=CC(=O)N(c1ccc(C(C)(C)C)cc1)C(C(=O)NC(C)(C)C)c1cncc(Br)c1C (stereo not given)
12.9
C#CCOc1ccc(N(C(=O)C=C)C(C(=O)NC(C)(C)C)c2cccnc2)cc1 (stereo not given)
0
C=CC(=O)N(c1ccc(C(C)(C)C)cc1)C(C(=O)NC1CC1)c1cccnc1 (stereo not given)
8.67
C=CC(=O)N(c1ccc(C2(C)CC2)cc1)C(C(=O)Nc1c(C)cccc1CC)c1cccnc1 (stereo not given)
0
C=CC(=O)N(c1ccc(N(C)C)c(C)c1)C(C(=O)Nc1cccc(CC)c1)c1cccnc1 (stereo not given)
0
CC(C(=O)O)c1ccc2c(c1)[nH]c1ccc(Cl)cc12 (stereo not given)
0
C=CC(=O)N(c1ccc(C(C)(C)C)cc1)C(C(=O)NC(C)(C)C)c1cncc(Br)c1 (stereo not given)
0
C=CC(=O)N(c1ccc(C(C)(C)C)cc1)C(C(=O)Nc1ccc(F)cc1)c1cccnc1 (stereo not given)
8.55
NS(=O)(=O)c1ccc(N2CCC(c3ccsc3)CC2)cc1
37.4
C=CC(=O)N(c1ccc(SC)cc1)C(C(=O)Nc1c(C)cccc1CC)c1cccnc1 (stereo not given)
0

====

# ASSAY TARGET: SARS-CoV-2 Main Protease (SARS-CoV-2) (UniProt P0DTD1)
# SETUP CONDITIONS: 20.0 µM
ASSAY READOUT: inhibition (%)

C#CCN1CCN(C(=O)C=C)CC1
-18.6
O=C(Cc1ccccc1)Nc1cccc(OC2CC(=O)N2)c1 (configuration not stated)
-2.28
C=CC(=O)N(c1ccc(SC)cc1)C(C(=O)Nc1ccc(Cl)cc1)c1cccnc1 (configuration not stated)
16.9
COc1ccccc1N1CCN(C(=O)c2cc(=O)[nH]c3ccccc23)CC1
39
Cc1ccncc1NC(=O)C12CCC(CO1)C2 (configuration not stated)
-5.84
CCN(C)CC1CCN(c2ccc(S(N)(=O)=O)cc2)CC1
3.39
O=C(O)[C@@H](c1ccccc1)N1Cc2ccccc2C1=O (stereo in doubt)
96.3
Cn1ccc(CN(C(=O)Cc2cccnc2)c2ccc(-c3ccccn3)cc2)n1
6.62
Cc1ccncc1NC(=O)CCc1nc2cc(Cl)ccc2o1
10.4
O=C(Cc1c[nH]c2ncccc12)Nc1cccc(Cl)c1
5.95
Cc1ccncc1Cn1ccccc1=O
3.62
NS(=O)(=O)c1ccc(N2CCC(c3ccco3)CC2)cc1
5.4

====

# ASSAY TARGET: SARS-CoV-2 Main Protease (SARS-CoV-2)
# SETUP CONDITIONS: 50.0 µM
inhibition values by entry
ASSAY READOUT: inhibition (%)

O=C(Nc1cccnc1)Nc1ccc(Cl)s1
35.7
NS(=O)(=O)c1ccc(N2CCC(c3ccsc3)CC2)cc1
42
NS(=O)(=O)c1ccc2c(c1)CN(CC1CCN(C(=O)CCl)CC1)CC2
91.1
CC(C)Cn1cc(NC(=O)NC2=NN(c3ccccc3)CC2)c2ccccc2c1=O
-5.97
CN1CCN(C(=O)Cc2c[nH]c3ncc(C(=O)NCCc4c[nH]c5ccc(F)cc45)cc23)CC1
8.74
NS(=O)(=O)CCc1ccccc1CN1CCN(C(=O)CCl)CC1
100
Cc1cccc(NC(=O)Cn2c(=O)oc3ccccc32)c1
-9.03
C=CC(=O)NCc1ccc(C(C)NC(=O)OC(C)(C)C)cc1 (stereo not drawn)
0
Nc1ncc(S(=O)(=O)NCc2cccc(Cl)c2)cn1
6.76
O=c1c(O)c(-c2cc(OCc3ccccc3)ccc2OCc2ccccc2)oc2ccccc12
0.254
O=C(Cc1ccc(F)cc1)Nc1cccc2cc[nH]c12
0
O=C(C1CCCN1C(=O)c1ccccc1)N1CCOCC1 (stereo not drawn)
0
Cc1[nH]c2ccccc2c1/C=N/N(C)C(=O)c1ccc2c(c1)OCO2
-6.66
O=C(Nc1cnccc1Cl)c1cc(Cl)ccc1O
65.9
Cc1ccncc1NC(=O)[C@@]12COC[C@@H]1C2 (stereo in doubt)
0
O=C(Oc1cncc(Cl)c1)c1cccc2[nH]ccc12
100
O=C(Cc1cc(Cl)c2c(c1)OCCO2)Nc1cnccc1-c1ccccc1
0
NC(=O)C1CCN(c2nnc(C3CCC(=O)N3)n2CCc2cc(F)cc(F)c2)CC1 (stereo not drawn)
0
Cc1ccncc1NC(=O)C12CC(CO1)C2
0
Cc1nnc(NC(=O)Nc2cccnc2)s1
8.86
CCN1CCN(Cc2ccccc2CNC(=O)[C@@]2(C)CCN2C(=O)OC(C)(C)C)CC1 (stereo in doubt)
13.2
O=C1C(=O)N(Cc2ncon2)c2ccc(Br)cc21
94.1
Cc1ccccc1CNc1ccccc1NC(=O)C(O)c1cccnc1 (stereo not drawn)
35.7
